# system_tested: UniProt:P03372
# Sequence (P03372 1-595): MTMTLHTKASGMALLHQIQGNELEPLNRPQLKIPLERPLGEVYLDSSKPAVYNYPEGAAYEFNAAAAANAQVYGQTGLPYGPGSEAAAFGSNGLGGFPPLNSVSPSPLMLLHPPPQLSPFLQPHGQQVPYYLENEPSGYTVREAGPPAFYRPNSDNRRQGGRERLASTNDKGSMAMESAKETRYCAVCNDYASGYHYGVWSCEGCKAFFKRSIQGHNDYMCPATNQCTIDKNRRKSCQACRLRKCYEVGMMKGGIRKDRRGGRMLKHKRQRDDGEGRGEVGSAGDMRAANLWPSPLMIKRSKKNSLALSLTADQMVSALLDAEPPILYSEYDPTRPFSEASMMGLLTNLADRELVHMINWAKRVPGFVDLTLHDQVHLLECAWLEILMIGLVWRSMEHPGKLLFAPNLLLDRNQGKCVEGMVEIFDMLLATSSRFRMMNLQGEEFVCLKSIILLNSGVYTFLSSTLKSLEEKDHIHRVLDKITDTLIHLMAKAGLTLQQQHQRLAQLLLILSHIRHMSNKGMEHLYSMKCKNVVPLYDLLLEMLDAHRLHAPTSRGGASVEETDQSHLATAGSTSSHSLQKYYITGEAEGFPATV
# protocol_notes: Degradation of ERα in MCF-7 cells (immunoblotting, 4 h)
# Format: cell-based
# condition: 10nM compound
Outcome label depends on Degradation rate (%) of ERα in MCF-7 cells relative to 60%: at/above gives 1, below gives 0.

A selection of reference data follows.
compound	answer_label
O=C1CCC(N2C(=O)c3cc4c(cc3C2=O)OCC2(CCN(C3CCC5(CC3)CCN(c3ccc(C6c7ccc(O)cc7CCC6c6ccccc6)cc3)CC5)CC2)C4)C(=O)N1 (centres unmarked) [A15]	0
O=C1CCC(N2Cc3cc4c(cc3C2=O)OC2(CC4)CN(CC3CCN(C(=O)C4CCN(c5ccc([C@@H]6c7ccc(O)cc7CC[C@@H]6c6ccccc6)cc5)CC4)CC3)C2)C(=O)N1 (some centres unmarked) [K39]	0
CC1CC(N2CCC3(CC2)COc2c3ccc3c2CN(C2CCC(=O)NC2=O)C3=O)CCN1C1CC2(CCN(c3ccc(C4c5ccc(O)cc5CCC4c4ccccc4)cc3)CC2)C1 (centres unmarked) [K18]	1
CC(C)(C(=O)N1CCC2(CC1)COc1c2ccc2c1CN(C1CCC(=O)NC1=O)C2=O)N1CCC2(CCN(c3ccc([C@@H]4c5ccc(O)cc5CC[C@@H]4c4ccccc4)cc3)CC2)C1 (some centres unmarked) [A91]	0

Okay, next one:
Exercise: Hello, I need to know if CN(C(=O)CN1CCC2(CC1)COc1c2ccc2c1C(=O)N(C1CCC(=O)NC1=O)C2=O)C1CCC2(CC1)CCN(c1ccc([C@@H]3c4ccc(O)cc4CC[C@@H]3c3ccccc3)cc1)CC2 (some centres unmarked) [C15] has measured Degradation rate (%) of ERα in MCF-7 cells not below 60%. Thanks!
Key: 0
